Values from patent US20260218138A1

Below, each entry is listed with its recorded kcat.
# measurement protocol: Enzyme-coupled assay: transfer of acyl-moieties from MMal-CoA to the ACP
# Format: biochemical
# run conditions: substrate MMal-CoA, acceptor ACP from murine FAS

{"molecule": "Mutant A04: engineered murine acyltransferase, mutations T161A F184A K186A R286A (protein) NKRPLWFICSGMGTQWRGMGLSLMRLDSFRESILRSDEAVKPLGVKVSDLLLSTDERTFDDIVHAFVSLTAIQIALIDLLTSVGLKPDGIIGHSLGEVACGYADGCLSQREAVLAAYWRGQCIKDAHLPPGSMAAVGLSWEECKQRCPAGVVPACHNSEDAVTISGPQAAVNEFVEQLKQEGVAAAEVRTGGLAFHSYFMEGIAPTLLQALKKVIREPRPRSARWLSTSIPEAQWQSSLARTSSAEYNVNNLVSPVLFQEALWHIPEHAVVLEIAPHALLQAVLKAGVKSSCTIIPLMKRDHKDNLEFFLTNLGKVHLT", "kcat": "0.013 s⁻¹"}
{"molecule": "Mutant A14: engineered murine acyltransferase, mutations K186E R300D (protein) NKRPLWFICSGMGTQWRGMGLSLMRLDSFRESILRSDEAVKPLGVKVSDLLLSTDERTFDDIVHAFVSLTAIQIALIDLLTSVGLKPDGIIGHSLGEVACGYADGCLSQREAVLAAYWRGQCIKDAHLPPGSMAAVGLSWEECKQRCPAGVVPACHNSEDTVTISGPQAAVNEFVEQLKQEGVFAEEVRTGGLAFHSYFMEGIAPTLLQALKKVIREPRPRSARWLSTSIPEAQWQSSLARTSSAEYNVNNLVSPVLFQEALWHIPEHAVVLEIAPHALLQAVLKRGVKSSCTIIPLMKDDHKDNLEFFLTNLGKVHLT", "kcat": "0.051 s⁻¹"}
